assayInfo: Substrate specificities of KAZ mutants (ZZ-fused, crude enzyme), bis-CTZ
Assay type: biochemical
settings: 1 μg substrate, integrated for 60 seconds
Protocol: The coelenterazine analogues used for substrate specificity studies were synthesized by the methods described in publications. Specifically, bis-coelenterazine was synthesized by the method described in Nakamura et al. (1997) Tetrahedron Lett. 38: 6405-6406; furimazine by the method described in Hall et al. (2012) ACS Chem. Biol. […]; and, 6h-coelenterazine, f-coelenterazine and 6h-f-coelenterazine by the methods described in Inouye et al (2013) Biochem. Biophys. Res. Commun. 437: 23-28. […]
Measured Relative Luminescence Activity bis-CTZ Int. values are reported for all entries that follow.

Worked set:
molecule	observedValue
KAZ-V44I-A54I: KAZ mutant with two amino acid substitutions V44I and A54I, SEQ ID NO: 10 (protein) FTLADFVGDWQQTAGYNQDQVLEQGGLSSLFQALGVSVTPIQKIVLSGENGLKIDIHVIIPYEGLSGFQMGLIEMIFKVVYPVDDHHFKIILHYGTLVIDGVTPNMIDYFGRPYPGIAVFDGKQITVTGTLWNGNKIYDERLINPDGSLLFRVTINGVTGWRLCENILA	5.9
KAZ-V44I-Y138I: KAZ mutant with two amino acid substitutions V44I and Y138I, SEQ ID NO: 12 (protein) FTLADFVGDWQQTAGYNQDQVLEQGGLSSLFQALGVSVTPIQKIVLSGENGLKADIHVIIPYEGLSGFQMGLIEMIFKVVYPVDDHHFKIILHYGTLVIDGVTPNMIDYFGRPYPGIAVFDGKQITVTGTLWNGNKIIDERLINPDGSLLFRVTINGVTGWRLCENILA	8.3

Attention now shifts to the item below.
Give the measured Relative Luminescence Activity bis-CTZ Int. of KAZ-V44I: KAZ with single amino acid substitution V44I, SEQ ID NO: 4 (protein) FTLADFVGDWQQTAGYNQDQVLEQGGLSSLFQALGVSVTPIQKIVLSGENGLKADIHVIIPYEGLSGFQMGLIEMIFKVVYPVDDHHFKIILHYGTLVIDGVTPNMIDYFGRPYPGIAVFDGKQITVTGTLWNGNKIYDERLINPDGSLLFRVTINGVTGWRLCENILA .
1.4
